subject_of_test: Streptavidin (Streptomyces avidinii) (UniProt P22629)
Sequence (P22629 whole entry, looked up): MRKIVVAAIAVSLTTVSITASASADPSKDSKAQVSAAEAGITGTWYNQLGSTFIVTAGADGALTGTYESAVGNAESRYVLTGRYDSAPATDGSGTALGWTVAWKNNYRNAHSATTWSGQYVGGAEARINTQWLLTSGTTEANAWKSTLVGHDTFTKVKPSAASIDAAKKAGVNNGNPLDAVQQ
assay_remarks: compounds binding control protein streptavidin – biophysical, small-molecule microarray, 635/667 nm fluorescence, artefact control for SMM compound annotation, primary screen (AID 1147);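 further: signal reflects streptavidin binding to arrayed compounds as a control protein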
measurement_conditions: higher = more signal
measurement_type: composite z-score
I only need the number, thanks.

What value of measured composite z-score is listed for CCOC(=O)C1=CC[C@@H](c2ccc(C(F)(F)F)cc2)N(S(=O)(=O)c2ccc(C)cc2)[C@H]1c1ccccc1 ? 1.5

What value of measured composite z-score is listed for C[N+](C)(C)CCCCCCNC(=O)[C@H]1C[C@H]2C(=O)N[C@@H](Cc3ccccc3)C(=O)N2[C@H]1c1cccc(OCCO)c1 ? -0.563

What value of measured composite z-score is listed for C#CCOc1ccc(C[C@@H](C(=O)OC)N(CC#C)[C@@H](/C=C/C2CC2)[C@H](O)Cc2ccccc2)cc1 ? -0.57

What value of measured composite z-score is listed for C=C(C)[C@@H]1CC=C(C(O)C2C=CC3C(=O)NC(=O)C3N2Nc2ccc(Cl)cc2Cl)CC1 (some centres undefined) ? 1.39

----------
assay_remarks: budding yeast growth modifiers under rapamycin – strain BY4716, OD600, 96 h, primary screen (AID 1091); further: test concentration not given here
measurement_conditions: S. cerevisiae BY4716 + rapamycin, called active from +8 up or from −8 down
The source made the active and inactive calls.
Result category, one only: TRUE = active, FALSE = inactive

For this compound, state the assay outcome: O=C1NC(=O)C2C1C=CC(C(O)C=Cc1ccc([N+](=O)[O-])cc1)N2Nc1ccc(Cl)cc1Cl (stereo not given) FALSE

For this compound, state the assay outcome: C=CCNC(=O)[C@H]1[C@@H]2C(=O)O[C@@H](c3ccccc3)[C@@H](c3ccccc3)N2[C@@H](c2ccc(O)cc2)[C@]12C(=O)Nc1ccc(C#CCCO)cc12 FALSE

For this compound, state the assay outcome: CC(=O)n1cc(C(O)C2C=CC3C(=O)NC(=O)C3N2Nc2ccccn2)c2ccccc21 (stereo not given) FALSE

For this compound, state the assay outcome: O=C(O)[C@H](Cc1ccccc1)n1cc(-c2ccccc2)nn1 FALSE

For this compound, state the assay outcome: OCC1C=C(/C=C/c2ccccc2)CN1Cc1ccccc1Br (stereo not given) FALSE

For this compound, state the assay outcome: O=C1OCC=C[C@H]2OC34C=CCN(Cn5nnc6ccccc65)C(=O)[C@H]3N(CCCCCO)C(=O)[C@@H]4[C@@H]12 (stereo not given in full) FALSE

For this compound, state the assay outcome: O=C1[C@H]2C=C(I)[C@H](C[C@@H]2OCCCCO)[C@@]12CO2 FALSE

For this compound, state the assay outcome: O=C(NCc1ccccc1)[C@@H]1c2ccccc2C(=O)N(C2Cc3ccccc3C2)[C@H]1c1ccc(CO)cc1 FALSE

For this compound, state the assay outcome: CCCNC(=O)[C@@H]1c2ccccc2C(=O)N(Cc2ccccc2OC)[C@H]1c1ccc(CO)cc1 FALSE

For this compound, state the assay outcome: CCCC=C(CCC)[C@@H](NS(=O)(=O)c1ccc(Cl)cc1)c1ccc(C(=O)OC)cc1 FALSE

For this compound, state the assay outcome: C=CC[C@@]1(C(=O)N2CCCCC2)N=C(c2ccc(OCCCO)cc2)O[C@@H]1c1ccccc1N=[N+]=[N-] FALSE

For this compound, state the assay outcome: O=C1NC(=O)C2C1C=CC(C(O)C1CC=CCC1)N2Nc1ccccn1 (stereo not given) FALSE

For this compound, state the assay outcome: COCCCNC(=O)[C@@H]1c2ccccc2C(=O)N(Cc2ccccc2OC)[C@H]1c1ccc(CO)cc1 FALSE

For this compound, state the assay outcome: CO[C@H]1O[C@H](CO)[C@@H](OC(=O)Nc2ccc(Oc3ccccc3)cc2)[C@H](OC(=O)Nc2ccc3c(c2)OCO3)[C@@H]1OC(=O)Nc1ccc2c(c1)OCO2 TRUE

For this compound, state the assay outcome: CC1CC/C=C\[C@H]2OC34C=CCN(Cn5nnc6ccccc65)C(=O)[C@H]3N(CCCCCO)C(=O)[C@@H]4C2C(=O)O1 (stereo not given in full) FALSE

For this compound, state the assay outcome: CCOC(=O)C[C@H]1[C@H](OC(=O)c2ccc(C(=O)c3ccccc3)cc2)[C@@H](NC(=O)c2ccccc2)c2cc(OCCCO)ccc2N1C(=O)c1ccccc1 FALSE

For this compound, state the assay outcome: CN1C(=O)C2C=CC(C(O)c3ccc(F)cc3)N(N(c3ccccc3)c3ccccc3)C2C1=O (stereo not given) FALSE

For this compound, state the assay outcome: COc1ccc([Si](C)(C)[C@@H]2[C@@H](CC(=O)N3CCC[C@H]3CO)O[C@]3(C(=O)N(Cc4cccc(I)c4)c4ccccc43)[C@H]2C)cc1 FALSE

For this compound, state the assay outcome: COc1ccc(CCNC(=O)[C@@]2(c3ccc([N+](=O)[O-])cc3)CC(=O)N(CC34CC5CC(CC(C5)C3)C4)[C@@H]2c2ccc(CO)cc2I)cc1 FALSE

For this compound, state the assay outcome: C=C(CCCC)C(=O)CC[C@@H](OC(C)=O)c1ccc(CO)o1 FALSE

For this compound, state the assay outcome: [N-]=[N+]=Nc1ccccc1C[C@]1(C(=O)NCC(O)CO)N=C(c2ccc(OCCCO)cc2)O[C@H]1c1ccccc1 (stereo not given in full) FALSE

For this compound, state the assay outcome: COCC(=C=CC[C@H](O)c1cccc(OCCO)c1)CCO FALSE

For this compound, state the assay outcome: CCCCCCc1nc(-c2ccc(-c3ccc(Cl)c(Cl)c3)o2)cc2c1[Si](C(C)C)(C(C)C)O[C@H]2c1ccccc1 FALSE

For this compound, state the assay outcome: CCCC[C@@H]1C[C@H]1[C@@H](NC(=O)c1cccnc1)c1ccc(Cl)cc1 FALSE

For this compound, state the assay outcome: O=C(CS)NCCCCCNC(=O)[C@@H]1C[C@@H]2C(=O)NCC(=O)N2[C@@H]1c1ccc(O)cc1 FALSE
